Measured EC50 values are reported for all entries that follow.
ASSAYED_TARGET: Trace amine-associated receptor 1 (Homo sapiens)
Sequence (Q96RJ0 whole entry): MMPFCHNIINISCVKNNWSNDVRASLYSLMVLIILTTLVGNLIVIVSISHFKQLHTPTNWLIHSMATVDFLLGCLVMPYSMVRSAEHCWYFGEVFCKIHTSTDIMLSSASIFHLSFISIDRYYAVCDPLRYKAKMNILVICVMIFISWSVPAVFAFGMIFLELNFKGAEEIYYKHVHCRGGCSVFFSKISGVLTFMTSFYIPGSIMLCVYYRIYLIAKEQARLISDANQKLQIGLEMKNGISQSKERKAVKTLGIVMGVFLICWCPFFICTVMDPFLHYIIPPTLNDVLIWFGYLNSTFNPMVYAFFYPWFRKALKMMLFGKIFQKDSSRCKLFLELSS
TEST_SUMMARY: Fluorescence-based cell-based high throughput dose response assay to identify agonists of the human trace amine associated receptor 1 (TAAR1).
Format: functional
Calls of active or inactive are those of the source. No stated cut-off is given here; in the data, active = EC50 of 10 µM or less and inactive = more.

{"columns": ["MOLECULE", "REPORTED_PROPERTY", "READOUT_VALUE"],
 "data": [
  ["Oc1cc2c(c(Cl)c1O)CCNCC2c1ccccc1 (centres undefined)", "EC50", "6.54 µM (active)"]
]}

Data request, read-out EC50, for Clc1ccc(CCNCc2ccncc2)c(Cl)c1
2.01 µM (active)

Data request, read-out EC50, for CCOc1ccc([N+](=O)[O-])cc1CNCCc1ccccc1
0.337 µM (active)

Data request, read-out EC50, for COc1ccccc1CCn1cnc(-c2ccccc2OC)c1C(C)C
5.14 µM (active)
